Tested on: SiHa cells
Assay Protocol: IC50 assay (inhibition of proliferation, 4 h exposure, SRB)
Condition Label: Homo sapiens, SiHa, 4 h, read-out: Anoxic IC50, SiHa, pHe 6.5, 4 h, anoxic
Procedure: Cells were seeded in 96-well plates (SiHa or FaDu 1500 cells/well, UT-SCC-74B 800 cells/well) in 100 μL. After incubation for 2 h, the drugs were added in 50 μL of the same titrated medium at 3× the final concentration to duplicate the wells. […] Cultures were then grown for 5 days before staining with sulphorhodamine B and measuring absorbance, with the estimation of IC50 values using 4-parameter logistic regression, as previously carried out. […]
Parameter: IC50

Nc1n[n+]([O-])c2ccccc2[n+]1[O-] [Compound 3, tirapazamine, reference compound]    2.9 µM
COC(=O)CNc1n[n+]([O-])c2cc3c(cc2[n+]1[O-])CCC3    10.9 µM
CCOC(=O)CCCNc1n[n+]([O-])c2ccccc2[n+]1[O-] [Compound 11b]    4.36 µM
Cc1ccc2c(c1)[n+]([O-])nc(NCCCC(=O)O)[n+]2[O-] [Compound 12a]    234 µM
O=C(O)CCCc1ccc(N(CCCl)CCCl)cc1    3.78 µM

Suppose we examine the compound `CCOC(=O)CNc1n[n+]([O-])c2ccccc2[n+]1[O-]` ; what IC50 value has been reported?
2.5 µM

Suppose we examine the compound `Cc1ccc2c(c1)[n+]([O-])c(CCC(=O)O)n[n+]2[O-]` ; what IC50 value has been reported?
364 µM

Suppose we examine the compound `COC(=O)CCc1n[n+]([O-])c2cc3c(cc2[n+]1[O-])CCC3` ; what IC50 value has been reported?
15.1 µM

Suppose we examine the compound `COC(=O)CCc1n[n+]([O-])c2ccccc2[n+]1[O-]` ; what IC50 value has been reported?
1.8 µM

Suppose we examine the compound `O=C(O)CCc1n[n+]([O-])c2ccccc2[n+]1[O-]` ; what IC50 value has been reported?
97 µM

Suppose we examine the compound `O=C(O)CNc1n[n+]([O-])c2ccccc2[n+]1[O-]` ; what IC50 value has been reported?
135 µM

* * *

Test system: SiHa cells
Assay Protocol: IC50 assay (inhibition of proliferation, 4 h exposure, SRB)
Condition Label: SiHa, oxic
Measured PCR oxic (IC50 at pHe 7.4/IC50 at pHe 6.5) of individual entries
The answer should be written as a number, with no unit following it.

Please review the following examples before continuing.
Nc1n[n+]([O-])c2ccccc2[n+]1[O-] [Compound 3, tirapazamine, reference compound]    1.77
CCOC(=O)CNc1n[n+]([O-])c2ccccc2[n+]1[O-]    1.63
O=C(O)CCc1n[n+]([O-])c2cc3c(cc2[n+]1[O-])CCC3    1.97

Would you kindly look at the next entry?
Provide value of PCR oxic (IC50 at pHe 7.4/IC50 at pHe 6.5) for this record tested with SiHa cells: `O=C(O)CCc1n[n+]([O-])c2ccccc2[n+]1[O-]`
2.45

* * *

Measured IC50 of individual entries
Test system: SiHa cells
Assay Protocol: IC50 assay modified for chronic hypoxia (oxia, hypoxia, anoxia)
Format: cell-based
Condition Label: Homo sapiens, 4 h, <0.01% O2, pHe 7.4, 4 h

Please review the following examples before continuing.
[O-][n+]1nc(CCCN2CCOCC2)[n+]([O-])c2cc3c(cc21)CCC3 [Compound 2, SN30000, reference compound]    2.59 µM
O=C(O)CCc1n[n+]([O-])c2ccccc2[n+]1[O-] [Compound 4a]    298 µM

Would you kindly look at the next entry?
Suppose we examine the molecule O=C(O)CCCc1ccc(N(CCCl)CCCl)cc1 [Compound 1, chlorambucil] ; what IC50 value has been reported?
11 µM

* * *

Tested on: UT-SCC-74B cells
Assay Protocol: IC50 assay (inhibition of proliferation, 4 h exposure, SRB)
Type: cell-based
Condition Label: Homo sapiens, UT-SCC-74B, 4 h, UT-SCC-74B, pHe 6.5, 4 h, 20% O2; read-out: Oxic IC50
Measured pIC50 of individual entries
Scale: negative log10 of molar concentration, which is what pIC50 denotes.

[O-][n+]1nc(CCCN2CCOCC2)[n+]([O-])c2cc3c(cc21)CCC3 [Compound 2, SN30000, reference compound]    3.72

Suppose we examine the molecule `O=C(O)CCc1n[n+]([O-])c2ccccc2[n+]1[O-]` ; what pIC50 value has been reported?
3.53

Suppose we examine the molecule `O=C(O)CCCc1ccc(N(CCCl)CCCl)cc1` ; what pIC50 value has been reported?
6.10

* * *

Assay Protocol: Measured pKa (potentiometric titration)
Parameter: pKa
The answer should be written as a number, with no unit following it.

Suppose we examine the compound `O=C(O)CCc1n[n+]([O-])c2cc3c(cc2[n+]1[O-])CCC3` ; what pKa value has been reported?
4.16

* * *

Assay Protocol: Solubility in AlphaMEM + 5% FBS, pH 7.4
Condition Label: culture medium (AlphaMEM + 5% FBS), pH 7.4, plasma or biological fluid, kinetic from dmso stock
Measured solubility of individual entries
Give just the number in µM; leave the unit off.

O=C(O)CCc1n[n+]([O-])c2ccccc2[n+]1[O-] [Compound 4a]    17100

Suppose we examine the compound CCOC(=O)CCCNc1n[n+]([O-])c2cc(C)ccc2[n+]1[O-] [Compound 12b] ; what solubility value has been reported?
160

* * *

Test system: SiHa cells
Assay Protocol: IC50 assay (inhibition of proliferation, 4 h exposure, SRB)
Condition Label: Homo sapiens, SiHa, 4 h, read-out: Anoxic IC50, SiHa, pHe 7.4, 4 h, anoxic
Parameter: IC50 (µM)
Give just the number in µM; leave the unit off.

Please review the following examples before continuing.
O=C(O)CNc1n[n+]([O-])c2ccccc2[n+]1[O-] [Compound 8a]    154
CCOC(=O)CNc1n[n+]([O-])c2ccccc2[n+]1[O-] [Compound 8b]    1.2
COC(=O)CCNc1n[n+]([O-])c2cc3c(cc2[n+]1[O-])CCC3 [Compound 10b]    20.4
Nc1n[n+]([O-])c2ccccc2[n+]1[O-] [Compound 3, tirapazamine, reference compound]    2.81
COC(=O)CNc1n[n+]([O-])c2cc3c(cc2[n+]1[O-])CCC3 [Compound 9b]    8.08

Would you kindly look at the next entry?
Suppose we examine the compound O=C(O)CCc1n[n+]([O-])c2cc3c(cc2[n+]1[O-])CCC3 [Compound 7a] ; what IC50 value has been reported?
864

* * *

System: SiHa cells
Assay Protocol: IC50 assay modified for chronic hypoxia (oxia, hypoxia, anoxia)
Format: cell-based
Condition Label: Homo sapiens, 4 h, <0.01% O2, pHe 6.5, 4 h
Measured pIC50 of individual entries
Scale: negative log10 of molar concentration, which is what pIC50 denotes.

[O-][n+]1nc(CCCN2CCOCC2)[n+]([O-])c2cc3c(cc21)CCC3 [Compound 2, SN30000, reference compound]    5.51
O=C(O)CCCc1ccc(N(CCCl)CCCl)cc1 [Compound 1, chlorambucil]    5.83

Suppose we examine the compound O=C(O)CCc1n[n+]([O-])c2ccccc2[n+]1[O-] [Compound 4a] ; what pIC50 value has been reported?
3.80

* * *

Measured solubility of individual entries
Assay Protocol: Solubility in AlphaMEM + 5% FBS, pH 7.4
Condition Label: culture medium (AlphaMEM + 5% FBS), pH 7.4, plasma or biological fluid, kinetic from dmso stock

Please review the following examples before continuing.
COC(=O)CCc1n[n+]([O-])c2ccc(C)cc2[n+]1[O-] [Compound 6b]    > 900 µM
CCOC(=O)CCCNc1n[n+]([O-])c2ccccc2[n+]1[O-] [Compound 11b]    1400 µM

Suppose we examine the molecule Cc1ccc2c(c1)[n+]([O-])nc(NCCCC(=O)O)[n+]2[O-] [Compound 12a] ; what solubility value has been reported?
> 890 µM

* * *

Parameter: melting point

Please review the following examples before continuing.
CCOC(=O)CCCNc1n[n+]([O-])c2cc(C)ccc2[n+]1[O-] [Compound 12b]    191 to 192 °C
COC(=O)CCc1n[n+]([O-])c2ccccc2[n+]1[O-]    89 to 91 °C
COC(=O)CCc1n[n+]([O-])c2ccc(C)cc2[n+]1[O-]    166 to 168 °C

Suppose we examine the compound `Cc1ccc2c(c1)[n+]([O-])c(CCC(=O)O)n[n+]2[O-]` ; what melting point value has been reported?
173 to 175 °C (dec.)

Suppose we examine the compound `Cc1ccc2c(c1)[n+]([O-])nc(CCC(=O)O)[n+]2[O-]` ; what melting point value has been reported?
181 to 183 °C (dec.)

Suppose we examine the compound `COC(=O)CCc1n[n+]([O-])c2cc(C)ccc2[n+]1[O-]` ; what melting point value has been reported?
165 to 167 °C

Suppose we examine the compound `COC(=O)CCc1n[n+]([O-])c2cc3c(cc2[n+]1[O-])CCC3` ; what melting point value has been reported?
170 to 171 °C

Suppose we examine the compound Cc1ccc2c(c1)[n+]([O-])nc(NCCCC(=O)O)[n+]2[O-] (hydrate or solvate) [Compound 12a] ; what melting point value has been reported?
185 to 188 °C

Suppose we examine the compound `COC(=O)CNc1n[n+]([O-])c2cc3c(cc2[n+]1[O-])CCC3` ; what melting point value has been reported?
171 to 178 °C

Suppose we examine the compound O=C(O)CCc1nc2ccccc2[n+]([O-])n1 [Compound 15a] ; what melting point value has been reported?
152 to 154 °C (dec.)
